biological target: FAD-linked sulfhydryl oxidase ALR (Homo sapiens) (UniProt P55789); assay: ALR-catalysed DTT oxidation blockers – biochemical, H2O2 detection, HRP-luminol luminescence, single point, primary screen (AID 485317); details: purified ALR, stronger effect = higher value, concentration not given here
Sequence (P55789 whole entry, looked up): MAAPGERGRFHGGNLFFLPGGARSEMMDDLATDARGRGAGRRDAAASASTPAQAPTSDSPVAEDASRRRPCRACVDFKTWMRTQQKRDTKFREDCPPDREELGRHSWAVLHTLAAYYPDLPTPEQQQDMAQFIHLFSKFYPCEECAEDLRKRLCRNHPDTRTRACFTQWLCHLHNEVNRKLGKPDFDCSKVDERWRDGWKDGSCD
Hit rate of the full screen: of about 290,000 compounds, about 11,000 (3.8%) were called active. The list comes from a sample in which actives are over-represented; it also holds close analogues and randomly drawn compounds.
Label Fulfilled when inhibition >= 10%; otherwise Not fulfilled.

The examples below pair each entry with its known result.
CSCC[C@H](NC(=O)N1CCn2c1nc1ccccc12)C(=O)NCc1ccc2c(c1)OCO2 :: Not fulfilled
O=C(NNC(=O)c1ccc(Cl)nc1)c1ccc(Br)cc1 :: Not fulfilled
CN(C)/C=C1/Nc2ccccc2C1=O :: Fulfilled

Please tell me: is the compound COCC(=O)Nc1c(I)c(C(=O)NCC(O)CO)c(I)c(C(=O)N(C)CC(O)CO)c1I (centres undefined) at or over 10% in terms of inhibition? Not fulfilled

Please tell me: is the compound COc1ccc(C(=O)O)cc1S(=O)(=O)NC1CCN(Cc2ccccc2)CC1 at or over 10% in terms of inhibition? Not fulfilled

Please tell me: is the compound CN(C)/C=C1/C(=O)Nc2ccccc21 at or over 10% in terms of inhibition? Fulfilled

Please tell me: is the compound CN(C)/C=C1\C=C(c2ccccc2)OC1=O at or over 10% in terms of inhibition? Not fulfilled

Please tell me: is the compound Cc1ccc(Cl)c(OCC(=O)N(C)CC(=O)Nc2ccc(N3CCOCC3)cc2)c1 at or over 10% in terms of inhibition? Fulfilled
